- Assay Target: DNA topoisomerase 1 (Homo sapiens) (UniProt P11387)
- Sequence (whole entry): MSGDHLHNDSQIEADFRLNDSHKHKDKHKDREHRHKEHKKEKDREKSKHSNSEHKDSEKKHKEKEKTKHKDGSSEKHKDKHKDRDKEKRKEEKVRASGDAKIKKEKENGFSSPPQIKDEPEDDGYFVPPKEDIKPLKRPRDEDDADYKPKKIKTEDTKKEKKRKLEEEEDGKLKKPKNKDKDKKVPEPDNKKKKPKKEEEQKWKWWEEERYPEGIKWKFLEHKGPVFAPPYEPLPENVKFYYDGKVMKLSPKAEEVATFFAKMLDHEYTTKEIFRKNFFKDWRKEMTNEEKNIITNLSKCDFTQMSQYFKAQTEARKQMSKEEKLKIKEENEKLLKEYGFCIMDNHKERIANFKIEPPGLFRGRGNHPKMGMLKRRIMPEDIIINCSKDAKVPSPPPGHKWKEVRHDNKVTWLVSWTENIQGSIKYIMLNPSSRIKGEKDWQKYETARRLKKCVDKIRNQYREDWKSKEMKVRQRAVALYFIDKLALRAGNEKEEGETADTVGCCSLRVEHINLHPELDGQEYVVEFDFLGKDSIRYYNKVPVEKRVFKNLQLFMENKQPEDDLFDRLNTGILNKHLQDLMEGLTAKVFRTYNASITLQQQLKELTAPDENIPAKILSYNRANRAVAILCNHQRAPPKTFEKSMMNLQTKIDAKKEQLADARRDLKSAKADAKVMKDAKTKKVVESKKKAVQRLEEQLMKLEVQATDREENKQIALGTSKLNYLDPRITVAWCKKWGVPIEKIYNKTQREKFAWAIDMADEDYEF
- Experiment: Inhibition of human recombinant DNA topoisomerase 1-mediated DNA cleavage assessed as relaxation of supercoiled pBR322 plasmid DNA at 50 uM […] by ethidium bromide staining
Activity calls are given as the source filed them. The rule behind the calls is not given here.
// classify into active, inactive

Use the examples below as a reference point.
Task: Give the logged outcome of this assay for the following compound: COc1cc(Cn2c3ccccc3c(=O)c3cc(NC(=O)CN)ccc32)cc(OC)c1
Output: active

Task: Give the logged outcome of this assay for the following compound: COc1cc(Cn2c3ccccc3c(=O)c3cc(NC(=O)CCN4CCOCC4)ccc32)cc(OC)c1
Output: inactive

Task: Give the logged outcome of this assay for the following compound: CCN(CC)CCC(=O)Nc1ccc2c(c1)c(=O)c1ccccc1n2Cc1cc(OC)cc(OC)c1
Output: inactive

More entries:
Task: Give the logged outcome of this assay for the following compound: COc1cc(Cn2c3ccccc3c(=O)c3cc(NC(=O)CCN(C)C)ccc32)cc(OC)c1
Output: inactive

Task: Give the logged outcome of this assay for the following compound: COc1cc(Cn2c3ccccc3c(=O)c3cc(NC(=O)C(C)N)ccc32)cc(OC)c1 (configuration not stated)
Output: inactive

Task: Give the logged outcome of this assay for the following compound: COc1cc(Cn2c3ccccc3c(=O)c3cc(NC(=O)C(N)CCCCN)ccc32)cc(OC)c1 (configuration not stated)
Output: inactive

Task: Give the logged outcome of this assay for the following compound: COc1cc(Cn2c3ccccc3c(=O)c3cc(NC(=O)C(N)C(C)C)ccc32)cc(OC)c1 (configuration not stated)
Output: inactive

Source listed as ChEMBL document CHEMBL1268891.
